Recorded measurements of IC50, one per entry
Target: UniProtKB P23946
Sequence (P23946 22-247): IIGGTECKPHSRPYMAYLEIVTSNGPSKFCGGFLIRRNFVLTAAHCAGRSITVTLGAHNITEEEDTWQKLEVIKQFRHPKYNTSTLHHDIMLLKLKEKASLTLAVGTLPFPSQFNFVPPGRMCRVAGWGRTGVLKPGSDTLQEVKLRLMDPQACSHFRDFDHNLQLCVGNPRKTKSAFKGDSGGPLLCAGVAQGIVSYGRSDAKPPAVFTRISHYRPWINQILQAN
Just the number in nM, nothing appended.

molecule: CCOc1ccccc1C[C@@H]1C(=O)N(C(=O)NC(c2ccccc2)c2ccccc2)[C@H]1Oc1ccc(C(=O)N2CCN(C3CCCCC3)CC2)cc1 [Compound I-145]
measuredOn: UniProtKB P23946
quantity: IC50
valueObserved: 10.8
//
molecule: C[C@@H](NC(=O)N1C(=O)[C@@H](Cc2ccccc2)[C@@H]1Oc1cccc(C(=O)N2CCN(C)CC2)c1)c1ccccc1 [Compound I-56]
measuredOn: UniProtKB P23946
quantity: IC50
valueObserved: 2.95
//
molecule: CCCc1ccccc1C[C@@H]1C(=O)N(C(=O)NC(c2ccccc2)c2ccccc2)[C@H]1Oc1ccc(C(=O)O)cc1 [Compound I-161]
measuredOn: UniProtKB P23946
quantity: IC50
valueObserved: 18
//
molecule: COc1ccccc1C[C@@H]1C(=O)N(C(=O)N[C@H](C)c2ccccc2)[C@@H]1Oc1ccc(C(=O)N2CCN(C)CC2)cc1 [Compound I-129]
measuredOn: UniProtKB P23946
quantity: IC50
valueObserved: 1.02
//
molecule: CCOc1ccccc1C[C@@H]1C(=O)N(C(=O)NC(c2ccc(C)cc2)c2ccc(C)cc2)[C@H]1Oc1ccc(C(=O)O)cc1 [Compound I-158]
measuredOn: UniProtKB P23946
quantity: IC50
valueObserved: 8.2

# input molecule: C[C@@H](NC(=O)N1C(=O)[C@@H](Cc2ccccc2)[C@@H]1Oc1ccc(C(=O)NCc2ccccc2)cc1)c1ccccc1 [Compound I-45] ; wanted: its IC50 20

Reported IC50, molecule CCC1(Cc2ccccc2)C(=O)N(C(=O)NC(C)c2ccccc2)C1Oc1ccc(C(=O)N2CCN(C)CC2)cc1 (centres unmarked) [Compound I-173] : ____ 190

* * *

Target: human chymase (Homo sapiens)
Sequence (P23946 22-247): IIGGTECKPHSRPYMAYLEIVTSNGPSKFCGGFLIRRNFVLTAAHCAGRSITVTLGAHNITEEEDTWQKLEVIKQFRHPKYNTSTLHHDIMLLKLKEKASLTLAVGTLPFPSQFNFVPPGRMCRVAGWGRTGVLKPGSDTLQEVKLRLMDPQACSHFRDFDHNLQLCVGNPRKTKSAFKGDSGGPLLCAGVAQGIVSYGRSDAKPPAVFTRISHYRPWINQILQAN
Listing of entries alongside the reported pIC50.
Hey, just a heads up that pIC50 is the negative log base 10 of the concentration in molar.

Consider the worked cases shown below.
compound: C[C@@H](NC(=O)N1C(=O)[C@@H](Cc2ccccc2)[C@H]1Oc1ccc(C(=O)N[C@@H](Cc2ccccc2)C(=O)OCc2ccccc2)cc1)c1ccccc1 [Compound I-74]
measuredOn: human chymase (Homo sapiens)
valueObserved: 8.07
//
compound: CCOc1ccccc1C[C@@H]1C(=O)N(C(=O)NC(c2ccccc2)c2ccccc2)[C@H]1Oc1ccc(CC(=O)O)cc1 [Compound I-154]
measuredOn: human chymase (Homo sapiens)
valueObserved: 8.60
//
compound: C[C@@H](NC(=O)N1C(=O)[C@@H](Cc2ccccc2)[C@@H]1Oc1ccc(/C=C/C(=O)N2CCN(C)CC2)cc1)c1ccccc1 [Compound I-54]
measuredOn: human chymase (Homo sapiens)
valueObserved: 8.46

Now examine the next entry.
Form field: reported pIC50 of C[C@H](NC(=O)N1C(=O)[C@H](Cc2ccccc2)[C@H]1Oc1ccc(C(=O)N2CCN(C)CC2)cc1)c1ccccc1 [Compound I-89] 7.73
